- TARGET_OR_TEST_SYSTEM: P-gp (Homo sapiens, UniProt P08183)
- Construct: doxorubicin resistant K562/DOX cell line overexpresses almost exclusively the transporter membrane protein P-gp; endogenous in cells; host or cells: K562/DOX (doxorubicin-selected human erythroleukemia cells)
- Sequence (P08183 whole entry): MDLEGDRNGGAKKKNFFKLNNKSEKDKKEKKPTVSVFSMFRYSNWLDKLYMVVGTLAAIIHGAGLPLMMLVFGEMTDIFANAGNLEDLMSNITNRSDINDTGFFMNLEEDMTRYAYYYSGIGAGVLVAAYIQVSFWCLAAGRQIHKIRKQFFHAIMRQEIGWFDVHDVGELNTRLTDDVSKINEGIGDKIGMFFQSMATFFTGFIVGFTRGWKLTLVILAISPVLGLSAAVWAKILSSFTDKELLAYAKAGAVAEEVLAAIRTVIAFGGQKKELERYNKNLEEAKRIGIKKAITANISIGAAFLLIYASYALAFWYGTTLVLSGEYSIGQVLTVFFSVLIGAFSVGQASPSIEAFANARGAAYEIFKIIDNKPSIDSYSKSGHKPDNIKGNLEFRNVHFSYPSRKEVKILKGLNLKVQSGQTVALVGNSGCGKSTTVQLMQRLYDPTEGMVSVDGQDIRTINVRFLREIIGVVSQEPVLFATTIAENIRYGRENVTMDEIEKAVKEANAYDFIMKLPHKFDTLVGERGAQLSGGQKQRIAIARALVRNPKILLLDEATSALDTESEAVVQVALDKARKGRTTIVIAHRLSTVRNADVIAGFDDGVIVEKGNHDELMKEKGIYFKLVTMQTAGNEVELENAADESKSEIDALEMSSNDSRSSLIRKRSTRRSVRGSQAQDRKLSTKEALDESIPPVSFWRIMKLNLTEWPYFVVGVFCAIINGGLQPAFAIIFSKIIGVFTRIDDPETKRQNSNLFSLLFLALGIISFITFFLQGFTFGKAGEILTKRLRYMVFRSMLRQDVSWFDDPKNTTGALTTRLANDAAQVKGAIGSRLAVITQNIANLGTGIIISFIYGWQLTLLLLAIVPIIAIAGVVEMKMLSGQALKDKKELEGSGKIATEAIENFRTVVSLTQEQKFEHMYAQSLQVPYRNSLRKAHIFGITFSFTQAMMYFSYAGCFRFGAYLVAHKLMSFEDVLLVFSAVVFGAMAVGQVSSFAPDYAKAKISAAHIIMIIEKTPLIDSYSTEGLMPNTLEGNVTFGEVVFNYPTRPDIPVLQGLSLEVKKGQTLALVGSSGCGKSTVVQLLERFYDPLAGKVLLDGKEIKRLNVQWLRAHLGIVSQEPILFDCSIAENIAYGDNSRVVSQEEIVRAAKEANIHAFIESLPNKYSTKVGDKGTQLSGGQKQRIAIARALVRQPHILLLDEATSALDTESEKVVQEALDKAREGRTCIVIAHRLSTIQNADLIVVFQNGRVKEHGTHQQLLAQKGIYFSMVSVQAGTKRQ
- PROCEDURE_TEXT: Rhodamine-123 uptake test on K562/DOX cells (flow cytometry)
- Format: cell-based
- MEASUREMENT_CONDITIONS: compound 30 µM
ATTRIBUTE_MEASURED: FR (fluorescence ratio, Rhd 123 uptake with/without modulator)

- SMILES_REPR: "COc1cc(/C=C/C(=O)OCCCCCCN(C)CCCOC(=O)COc2ccc3ccc(=O)oc3c2)cc(OC)c1OC"
  TARGET_OR_TEST_SYSTEM: "P-gp (Homo sapiens, UniProt P08183)"
  ENDPOINT_RESULT: 5.85

(1) COc1cc(C(=O)OCCCCCCN(C)CCCOC(=O)COc2ccc3ccc(=O)oc3c2)cc(OC)c1OC
(2) COc1cc(/C=C/C(=O)OCCCCCCCN(C)CCOC(=O)COc2ccc3ccc(=O)oc3c2)cc(OC)c1OC
Could you determine which record has the numerically smaller FR (fluorescence ratio, Rhd 123 uptake with/without modulator)? Candidates: 1 and 2 Please reply using the label of the selected record.
1
(1: 2.18, 2: 4.48)

(I) COc1cc(C(=O)OCCCCCCN(C)CCCOC(=O)c2ccc(S(N)(=O)=O)cc2)cc(OC)c1OC
(II) COc1cc(/C=C/C(=O)OCCCCCCN(C)CCCCOC(=O)COc2ccc3ccc(=O)oc3c2)cc(OC)c1OC
(III) COc1cc(/C=C/C(=O)OCCCCCN(C)CCCCCOC(=O)COc2ccc3ccc(=O)oc3c2)cc(OC)c1OC
Rank descending by FR (fluorescence ratio, Rhd 123 uptake with/without modulator). Your reply should list the labels following the order given in the request.
III, I, II

(I) COc1cc(/C=C/C(=O)OCCCCCCN(C)CCCCOC(=O)c2ccc(S(N)(=O)=O)cc2)cc(OC)c1OC
(II) COc1cc(C(=O)OCCCCCCCN(C)CCOC(=O)COc2ccc3ccc(=O)oc3c2)cc(OC)c1OC
In the pair I and II , the larger recorded FR (fluorescence ratio, Rhd 123 uptake with/without modulator) belongs to which? Please reply using the label of the selected record.
I

* * *

- TARGET_OR_TEST_SYSTEM: P-gp (Homo sapiens)
- Construct: doxorubicin resistant K562/DOX cell line overexpresses almost exclusively the transporter membrane protein P-gp; endogenous in cells; host or cells: K562/DOX (doxorubicin-selected human erythroleukemia cells)
- PROCEDURE_TEXT: Rhodamine-123 uptake test on K562/DOX cells (flow cytometry)
- Format: cell-based
- MEASUREMENT_CONDITIONS: compound 3 µM
- Experimental: The results were expressed as the FR (fluorescence ratio), which is the ratio between the average fluorescence intensity of rhodamine in the presence and in the absence of modulators. Value 1 was attributed to the average fluorescence intensity of the samples exposed only to rhodamine. An aliquot of cells (control) was incubated with the fluorochrome in the absence of inhibitors. […]
ATTRIBUTE_MEASURED: FR (fluorescence ratio, Rhd 123 uptake with/without modulator)

Worked set:
- SMILES_REPR: "CN(CCCCCCOC(=O)c1c2ccccc2cc2ccccc12)CCCOC(=O)COc1ccc2ccc(=O)oc2c1"
  ENDPOINT_RESULT: 1.43
- SMILES_REPR: "COc1cc(/C=C/C(=O)OCCCCCCN(C)CCCCOC(=O)COc2ccc3ccc(=O)oc3c2)cc(OC)c1OC"
  ENDPOINT_RESULT: 1.39

(I) COc1cc(/C=C/C(=O)OCCCCCCCN(C)CCCCCCCOC(=O)COc2ccc3ccc(=O)oc3c2)cc(OC)c1OC
(II) COc1cc(C(=O)OCCCCCCCN(C)CCOC(=O)c2ccc(S(N)(=O)=O)cc2)cc(OC)c1OC
(III) COc1cc(/C=C/C(=O)OCCCN(C)CCCOC(=O)c2ccc(S(N)(=O)=O)cc2)cc(OC)c1OC
I would appreciate it if you could sort these 3 molecules by FR (fluorescence ratio, Rhd 123 uptake with/without modulator), starting from the smallest number. Your reply should list the labels following the order given in the request.
III, II, I
(III: 1.00, II: 1.44, I: 2.33)

* * *

- TARGET_OR_TEST_SYSTEM: P-gp (Homo sapiens, UniProt P08183)
- Construct: doxorubicin resistant K562/DOX cell line overexpresses almost exclusively the transporter membrane protein P-gp; endogenous in cells; host or cells: K562/DOX (doxorubicin-selected human erythroleukemia cells)
- PROCEDURE_TEXT: Rhodamine-123 uptake test on K562/DOX cells (flow cytometry)
- Format: cell-based
- MEASUREMENT_CONDITIONS: compound 30 µM
ATTRIBUTE_MEASURED: FR (fluorescence ratio, Rhd 123 uptake with/without modulator)

- COMPOUND: "COc1cc(C(=O)OCCCCCCCN(C)CCOC(=O)c2ccc(S(N)(=O)=O)cc2)cc(OC)c1OC [Compound 25]"
  ENDPOINT_RESULT: 3.50
- COMPOUND: "CN(CCCCCCCOC(=O)c1c2ccccc2cc2ccccc12)CCOC(=O)c1ccc(S(N)(=O)=O)cc1 [Compound 28]"
  ENDPOINT_RESULT: 4.25
- COMPOUND: "CN(CCCCCOC(=O)c1ccc(S(N)(=O)=O)cc1)CCCOC(=O)c1c2ccccc2cc2ccccc12 [Compound 26]"
  ENDPOINT_RESULT: 4.45

(P) COc1cc(/C=C/C(=O)OCCCCCCN(C)CCCOC(=O)c2ccc(S(N)(=O)=O)cc2)cc(OC)c1OC [Compound 19]
(Q) COc1cc(/C=C/C(=O)OCCCN(C)CCCCCOC(=O)c2ccc(S(N)(=O)=O)cc2)cc(OC)c1OC [Compound 16]
(R) COc1cc(/C=C/C(=O)OCCCN(C)CCCOC(=O)COc2ccc3ccc(=O)oc3c2)cc(OC)c1OC [Compound 1]
Rank descending by FR (fluorescence ratio, Rhd 123 uptake with/without modulator). Your reply should list the labels following the order given in the request.
R, P, Q
